Data provenance is patent US8362000B2.

target: MGL (Rattus norvegicus, UniProt Q8R431); construct: one g rat brain was homogenized using a Polytron homogenizer; from tissue; host or cells: rat brain homogenate; test: 2-AG accumulation assay in rat brain homogenate; format: biochemical; details: rat brain homogenate; compound 10 μM; 2-AG accumulation as percent of vehicle; read-out: Rat Brain 2AG % VehCntrl (%) @ 10 μM
Sequence (Q8R431 whole entry): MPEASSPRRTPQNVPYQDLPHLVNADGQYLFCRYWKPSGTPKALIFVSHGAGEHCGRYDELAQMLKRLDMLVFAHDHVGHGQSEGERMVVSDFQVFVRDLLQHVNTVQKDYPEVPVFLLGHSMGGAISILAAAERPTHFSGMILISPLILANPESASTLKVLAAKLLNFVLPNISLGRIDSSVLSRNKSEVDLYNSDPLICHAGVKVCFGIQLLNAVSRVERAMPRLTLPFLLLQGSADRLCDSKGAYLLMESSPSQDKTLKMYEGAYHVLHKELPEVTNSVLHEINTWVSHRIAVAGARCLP
Record Y whenever 2-AG accumulation, % of vehicle control at 10 µM is at 700% or higher; record N when lower.

O=C(c1ccccc1)N1CCN(C2CN(C(=O)c3ccc(-c4ccc(Cl)c(Cl)c4)cc3)C2)CC1	N
O=C(c1ccc2nc(-c3ccc(C(F)(F)F)cc3)oc2c1)N1CC(N2CCN(C(=O)c3nccs3)CC2)C1	N
O=C(c1ccccc1)N1CCN(C2CN(C(=O)c3cc4cccc(C(F)(F)F)c4s3)C2)CC1	N
O=C(c1ccc(-c2ccccc2)cc1)N1CC(N2CCN(C(=O)c3cccs3)CC2)C1	Y
CC(C)COc1cccc(-c2ccc(C(=O)N3CC(N4CCN(C(=O)c5nccs5)CC4)C3)cc2)c1	Y
O=C(c1ccc(-c2ccc(F)cc2)cc1)N1CC(N2CCN(C(=O)c3cscn3)CC2)C1	N
O=C(c1ccc(OCc2ccccn2)c(Cl)c1)N1CC(N2CCN(C(=O)c3nccs3)CC2)C1	Y
O=C(c1ccccc1)N1CCN(C2CN(C(=O)c3ccc(OCc4ccc5ccccc5c4)cc3)C2)CC1	Y
O=C(c1ccccc1)N1CCN(C2CN(C(=O)c3ccc(-c4ccccc4C(F)(F)F)cc3)C2)CC1	N
O=C(c1csc(-c2cc(Cl)cc(Cl)c2)n1)N1CC(N2CCN(C(=O)c3nccs3)CC2)C1	N
O=C(c1ccc(-c2cccs2)cc1)N1CC(N2CCN(C(=O)c3nccs3)CC2)C1	N
Cc1ccc(F)cc1-c1ccc(C(=O)N2CC(N3CCN(C(=O)c4nccs4)CC3)C2)cc1	Y
O=C(c1ccccc1)N1CCN(C2CN(C(=O)c3ccc(Cc4ccccc4)s3)C2)CC1	N
O=C(c1ccccc1)N1CCN(C2CN(C(=O)c3ccc(N4CCCCCC4)cc3)C2)CC1	N
O=C(c1cscn1)N1CCN(C2CN(C(=O)c3cc4ccc(C(F)(F)F)cc4s3)C2)CC1	N
O=C(c1ccc(-c2ccccc2)cc1)N1CC(N2CCN(C(=O)c3cscn3)CC2)C1	N
CC(C)Oc1cccc(-c2ccc(C(=O)N3CC(N4CCN(C(=O)c5ccccc5)CC4)C3)cc2)c1	N
O=C(c1ccccc1)N1CCN(C2CN(C(=O)c3ccc(OC4CCCCC4)cc3)C2)CC1	N
O=C(c1cccc(-c2cccs2)c1)N1CC(N2CCN(C(=O)c3nccs3)CC2)C1	N
O=C(c1ccccc1)N1CCN(C2CN(C(=O)c3ccc(OCc4cccc(Cl)c4)c(Cl)c3)C2)CC1	N
O=C(c1ccccc1)N1CCN(C2CN(C(=O)c3ccc(-c4cccc(Cl)c4)cc3)C2)CC1	N
O=C(c1ccc(-c2ccc(Cl)c(C(F)(F)F)c2)cc1)N1CC(N2CCN(C(=O)c3nccs3)CC2)C1	Y
O=C(CCc1ccccc1Cl)N1CC(N2CCN(C(=O)c3nccs3)CC2)C1	N
O=C(c1ccc(-c2ccc(F)cc2F)cc1)N1CC(N2CCN(C(=O)c3nccs3)CC2)C1	Y
O=C(CCc1c(Cl)cccc1Cl)N1CC(N2CCN(C(=O)c3nccs3)CC2)C1	Y
O=C(c1ccccc1)N1CCN(C2CN(C(=O)c3ccc(-c4ccccc4)cc3)C2)CC1	N
O=C(c1cscn1)N1CCN(C2CN(C(=O)c3ccc(-c4ccccc4)cc3F)C2)CC1	N
O=C(c1ccc(-c2ccc(O)cc2)cc1)N1CC(N2CCN(C(=O)c3nccs3)CC2)C1	Y
Nc1cccc(-c2ccc(C(=O)N3CC(N4CCN(C(=O)c5nccs5)CC4)C3)cc2)c1	N
COc1cc(C(=O)N2CC(N3CCN(C(=O)c4cscn4)CC3)C2)ccc1-c1ccc(F)c(Cl)c1	Y
O=C(/C=C/c1ccc(SC(F)(F)F)cc1)N1CC(N2CCN(C(=O)c3nccs3)CC2)C1	N

* * *

biological target: mutant MGL (Homo sapiens, UniProt Q99685, L169S/L176S); experiment: MGL ThermoFluor assay - mutant; type: binding; details: compound concentration measured by qNMR, read-out: MGL mutant ThermoFluor qKd (using qNMR conc.)
Measurement Type: Kd

Cc1nc2cc(C(=O)N3CC(N4CCN(C(=O)c5nccs5)CC4)C3)ccc2n1-c1ccc(F)cc1 [Cpd 1227]	11 nM
O=C(c1ccc2c(ccn2Cc2cccnc2)c1)N1CC(N2CCN(C(=O)c3nccs3)CC2)C1 [Cpd 1048]	146 nM
O=C(c1ccc2c(c1)CCN2c1ccc(F)cc1)N1CC(N2CCN(C(=O)c3ccc[nH]3)CC2)C1 [Cpd 1099]	20 nM
O=C(c1ccc(SCc2cccc(C(F)(F)F)c2)cc1)N1CC(N2CCN(C(=O)C(F)(F)F)CC2)C1 [Cpd 974]	1780 nM
O=C(Cn1ccc2cc(C(=O)N3CC(N4CCN(C(=O)c5nccs5)CC4)C3)ccc21)N1CCCC1 [Cpd 1035]	1010 nM
O=C(c1ccc2c(cnn2Cc2ccc(F)cc2)c1)N1CC(N2CCN(C(=O)c3nccs3)CC2)C1 [Cpd 1029]	6 nM
Cc1nc2cc(C(=O)N3CC(N4CCN(C(=O)c5nccs5)CC4)C3)ccc2n1-c1ccccc1 [Cpd 1229]	11 nM
O=C(c1ccc2c(cnn2CCc2ccc(F)cc2)c1)N1CC(N2CCN(C(=O)c3nccs3)CC2)C1 [Cpd 1049]	50 nM

* * *

Target: mutant MGL (Homo sapiens, UniProt Q99685, L169S/L176S)
Sequence (Q99685 1-303 L169S/L176S): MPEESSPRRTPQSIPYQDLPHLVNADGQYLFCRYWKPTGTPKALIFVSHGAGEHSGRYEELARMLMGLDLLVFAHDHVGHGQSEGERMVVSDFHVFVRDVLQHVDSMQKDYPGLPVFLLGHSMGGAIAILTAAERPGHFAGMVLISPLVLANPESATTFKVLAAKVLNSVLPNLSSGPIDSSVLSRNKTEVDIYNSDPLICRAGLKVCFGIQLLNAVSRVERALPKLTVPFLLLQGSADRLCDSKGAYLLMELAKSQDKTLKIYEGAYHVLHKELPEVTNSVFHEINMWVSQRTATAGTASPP
Assay: MGL ThermoFluor assay - mutant
Type: binding
Settings: ThermoFluor concentration-response, read-out: MGL mutant ThermoFluor Kd
Measurement Type: log10 of Kd (log10 of the value in nM)

O=C(c1ccc(C(F)(F)c2ccccc2)cc1)N1CC(N2CCN(C(=O)c3nccs3)CC2)C1 [Cpd 986]	0.70
O=C(c1ccc(Sc2cccc(Cl)c2)cc1)N1CC(N2CCN(C(=O)c3nccs3)CC2)C1 [Cpd 428]	0.52
O=C(c1cscn1)N1CCN(C2CN(C(=O)c3cc(-c4ccccc4)ccc3F)C2)CC1 [Cpd 1280]	3.81
O=C(c1nccs1)N1CCN(C2CN(C(=O)c3cccc(-c4ccccc4)c3F)C2)CC1 [Cpd 1172]	2.25
O=C(c1ccc(Oc2cccc(F)n2)cc1)N1CC(N2CCN(C(=O)c3cscn3)CC2)C1 [Cpd 784]	3.33
O=C(c1ccccc1)N1CCN(C2CN(C(=O)c3ccc(NCc4ccccc4)c(I)c3)C2)CC1 [Cpd 542]	1.15
O=C(c1ccccc1)N1CCN(C2CN(C(=O)c3ccc(CNc4cccc(Cl)c4)cc3)C2)CC1 [Cpd 549]	1.78
COc1ccc(C(C)(C)C)cc1C(=O)N1CC(N2CCN(C(=O)c3nccs3)CC2)C1 [Cpd 849]	3.43
O=C(c1ccc(-c2ccccc2)cc1)N1CC(N2CCN(C(=O)c3ccc(Br)o3)CC2)C1 [Cpd 12]	1.16
O=C(c1ccccc1)N1CCN(C2CN(C(=O)c3ccc(-c4ccccc4)cc3Cl)C2)CC1 [Cpd 612]	1.89
COc1cc(NCc2ccccc2)c(Cl)cc1C(=O)N1CC(N2CCN(C(=O)c3ccccc3)CC2)C1 [Cpd 529]	2.50
O=C(c1ccccc1)N1CCN(C2CN(C(=O)c3ccc(-n4cccc4)cc3)C2)CC1 [Cpd 28]	2.57
O=C(c1ccccc1)N1CCN(C2CN(C(=O)c3ccc(SCc4cccnc4)cc3)C2)CC1 [Cpd 555]	3.30
Cc1c(Cc2ccc(C(F)(F)F)cc2)cccc1C(=O)N1CC(N2CCN(C(=O)c3cncs3)CC2)C1 [Cpd 1015]	3.07
O=C(c1ccc(-c2ccccc2)cc1)N1CCN(C2CN(C(=O)c3ncccn3)C2)CC1 [Cpd 1400]	3.61
O=C(c1cc2cc(Cl)ccc2o1)N1CC(N2CCN(C(=O)c3nccs3)CC2)C1 [Cpd 818]	3.00
O=C(c1cccc(-c2cccc(F)c2)c1)N1CC(N2CCN(C(=O)c3nccs3)CC2)C1 [Cpd 1124]	2.40

* * *

target: mutant MGL (Homo sapiens, UniProt Q99685, L169S/L176S); experiment: MGL ThermoFluor assay - mutant; type: binding; settings: ThermoFluor, compound concentration measured by qNMR, read-out: MGL mutant ThermoFluor qKd (μM) (using qNMR conc.)
The threshold is 0.08 µM. Values of Kd beneath it are tagged rule met; values meeting or exceeding it are tagged rule not met.

O=C(c1nccs1)N1CCN(C2CN(C(=O)c3cn(-c4ccc(F)cc4)c4ccccc34)C2)CC1	rule not met
O=C(c1cc(-c2cccc(F)c2)c2[nH]ccc2c1)N1CC(N2CCN(C(=O)c3nccs3)CC2)C1	rule met
O=C(c1ccc2c(ccn2-c2ccc(F)cc2)c1)N1CC(N2CCN(C(=O)c3cnco3)CC2)C1	rule not met
Cc1cn(-c2cccc(F)c2)c2ccc(C(=O)N3CC(N4CCN(C(=O)c5ccccc5)CC4)C3)cc12	rule met
NC(=O)c1cccc(-n2ccc3cc(C(=O)N4CC(N5CCN(C(=O)c6ccccc6)CC5)C4)ccc32)c1	rule not met
Cc1cc(C(=O)N2CC(N3CCN(C(=O)c4nccs4)CC3)C2)sc1-c1cccc(C(F)(F)F)c1	rule met
